Data credit: patent US20250320312A1

target.of.assay: T1, Peptide 4: Biotin-AGGGGSGGGGSGGGGSAAA-Tyr-acid (N-terminal biotin; C-terminal acid; no PC)
T1 construct: control peptide without PC
T1 peptide: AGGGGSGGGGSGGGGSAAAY
experiment.description: scFv ELISA
The following binders are listed with their measured OD450 values.

{"columns": ["binder", "value.reported"],
 "data": [
  ["PcOxP_DB01_F03 (scFv, V domains shown, scFv in periplasmic extract) VH: EVQLLESGGGLVQPGGSLRLSCAASGFTFSDSYMEWVRQAPGKGLEWVAASRNKYNDYTTEYADSVKGRFTISRDNSKNTLYLQMNSLRAEDTAVYYCARDYYGSSYWYFDVWGQGTLVTVSS VL: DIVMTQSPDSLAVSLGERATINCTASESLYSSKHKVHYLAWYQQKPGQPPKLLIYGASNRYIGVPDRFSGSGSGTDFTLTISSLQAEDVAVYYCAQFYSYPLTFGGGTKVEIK", "0.07 OD450"]
]}

Let us move to another entry and its OD450.
Specify reported OD450 for the binder shown: PcOxP_DB04_H03 (scFv, V domains shown, scFv in periplasmic extract) VH: EVQLLESGGGLVQPGGSLRLSCAASGFPFSDFYMEWVRQAPGKGLEWVAASRNKANDYTTEYADSVKGRFTISRDNSKNTLYLQMNSLRAEDTAVYYCARDYYGSSYWYFDVWGQGTLVTVSS VL: DIQMTQSPSSLSASVGDRVTITCRASESLYSSLHKYLAWYQQKPGKAPKLLIYGASNLQIGVPSRFSGSGSGTDFTLTISSLQPEDFATYYCAQFYSYPLTFGGGTKVEIK
0.07 OD450
